Target: Glycogen phosphorylase, muscle form (Oryctolagus cuniculus)
Sequence (P00489 whole entry): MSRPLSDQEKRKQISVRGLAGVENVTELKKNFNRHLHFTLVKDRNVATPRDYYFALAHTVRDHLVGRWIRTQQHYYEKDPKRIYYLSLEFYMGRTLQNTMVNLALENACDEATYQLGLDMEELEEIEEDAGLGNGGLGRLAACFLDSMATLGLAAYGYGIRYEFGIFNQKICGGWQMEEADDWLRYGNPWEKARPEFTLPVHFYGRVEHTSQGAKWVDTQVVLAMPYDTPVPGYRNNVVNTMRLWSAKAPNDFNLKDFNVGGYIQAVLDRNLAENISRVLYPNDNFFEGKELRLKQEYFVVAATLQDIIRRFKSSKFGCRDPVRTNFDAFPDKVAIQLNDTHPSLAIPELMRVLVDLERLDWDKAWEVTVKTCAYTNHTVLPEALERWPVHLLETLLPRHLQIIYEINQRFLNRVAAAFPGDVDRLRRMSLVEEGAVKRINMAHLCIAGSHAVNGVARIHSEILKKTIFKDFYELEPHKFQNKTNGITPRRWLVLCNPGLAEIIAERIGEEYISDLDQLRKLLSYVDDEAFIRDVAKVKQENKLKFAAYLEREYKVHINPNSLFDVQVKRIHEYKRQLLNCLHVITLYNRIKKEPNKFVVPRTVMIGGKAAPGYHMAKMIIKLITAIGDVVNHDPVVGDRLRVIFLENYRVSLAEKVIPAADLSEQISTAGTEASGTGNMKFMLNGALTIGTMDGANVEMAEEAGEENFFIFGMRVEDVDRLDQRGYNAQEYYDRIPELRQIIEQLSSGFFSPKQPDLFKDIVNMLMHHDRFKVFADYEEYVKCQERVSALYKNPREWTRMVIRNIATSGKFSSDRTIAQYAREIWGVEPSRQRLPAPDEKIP
Study the reported IC50 values for Glycogen phosphorylase, muscle form (Oryctolagus cuniculus) given below; they originate from different publications.
property_label: IC50 (µM)

# smiles_str, assay_system, property_label, data_value
measured = [
    ("O=[N+]([O-])c1ccc(C2=NO[C@]3(O[C@H](CO)[C@@H](O)[C@H](O)[C@H]3O)S2)cc1", "Glycogen phosphorylase, muscle form (Oryctolagus cuniculus)", "IC50", 250),
    ("CC1(C)CC[C@]2(C(=O)O)CC[C@]3(C)C(=CC[C@@H]4[C@@]5(C)CC[C@H](OC(=O)COCCOCCNC(=O)c6ccc(C(=O)c7ccc(NC(=O)CCCC[C@@H]8SC[C@@H]9NC(=O)N[C@@H]98)cc7)cc6)C(C)(C)[C@@H]5CC[C@]43C)[C@@H]2C1", "Glycogen phosphorylase, muscle form (Oryctolagus cuniculus)", "IC50", 41.1),
]

P: Cn1ccnc1Sc1cc(C(=O)Nc2cccc(C#N)c2)c(N)cc1F
Q: CC1(C)CC[C@]2(C(=O)OCCCCN3CCCCC3)CC[C@]3(C)C(=CC[C@@H]4[C@@]5(C)C[C@@H](O)[C@H](O)C(C)(C)[C@@H]5CC[C@]43C)[C@@H]2C1
[ask] Identify the item whose IC50 is the smaller number: P or Q Pick one; state its label.
[reply] P
(P: 9.87 µM, Q: 580 µM)

* * *

Study the reported IC50 values for UniProt P00489 given below; they originate from different publications.
property_label: IC50 (µM)

The following compounds have reported results that may help.
# compound, IC50, µM
measured = [
    ("C[C@H]1[C@H](C)CC[C@]2(C(=O)OC3CC3)CC[C@]3(C)C(=CC[C@@H]4[C@@]5(C)C[C@@H](O)[C@H](O)C(C)(C)[C@@H]5CC[C@]43C)[C@H]12", 91.2),
    ("COS(=O)(=O)[C@@H]1C[C@]2(C)[C@H]3CC=C4[C@@H]5[C@@H](C)[C@H](C)CC[C@]5(C(=O)OCc5ccccc5)CC[C@@]4(C)[C@]3(C)CC[C@H]2C(C)(C)[C@H]1O", 43.4),
    ("C[C@H]1[C@H](C)CC[C@]2(C(=O)OCc3ccccc3)CC[C@]3(C)C(=CC[C@@H]4[C@@]5(C)C=C(O)C(=O)C(C)(C)[C@@H]5CC[C@]43C)[C@H]12", 7.31),
    ("CC1(C)CC[C@]2(C(=O)OCc3ccccc3)CC[C@]3(C)[C@H]([C@H](O)C[C@@H]4[C@@]5(C)CC[C@H](O)C(C)(C)[C@@H]5CC[C@]43C)[C@@H]2C1", 5.35),
    ("CC1(C)CC[C@]2(C(=O)OCCN3CCOCC3)CC[C@]3(C)C(=CC[C@@H]4[C@@]5(C)C[C@@H](O)[C@H](O)C(C)(C)[C@@H]5CC[C@]43C)[C@@H]2C1", 43),
    ("CC1(C)CC[C@]2(C(=O)OCCCCN3CCOCC3)CC[C@]3(C)C(=CC[C@@H]4[C@@]5(C)C[C@@H](O)[C@H](O)C(C)(C)[C@@H]5CC[C@]43C)[C@@H]2C1", 121),
    ("O=C(O)c1ccc2c3c1C(=O)N(Cc1ccccc1)C3(O)CCC2 (configuration not stated)", 1200),
    ("CCN(CC)CCOC(=O)[C@]12CCC(C)(C)C[C@H]1C1=CC[C@@H]3[C@@]4(C)C[C@@H](O)[C@H](O)C(C)(C)[C@@H]4CC[C@@]3(C)[C@]1(C)CC2", 51),
    ("O=C(O)c1ccc2c3c1C(=O)N(Cc1ccccc1)C3=CCC2", 1100),
    ("CC1(C)CC[C@]2(C(=O)O)CC[C@]3(C)C(=CC[C@@H]4[C@@]5(C)Cc6cn(S(C)(=O)=O)nc6C(C)(C)[C@@H]5CC[C@]43C)[C@@H]2C1", 49.3),
]

I: Cn1ccnc1Sc1cc(C(=O)Nc2cccc(N)c2)c(N)cc1F
II: CC1(C)CC[C@]2(C(=O)OCc3ccccc3)CC[C@]3(C)C(=CC[C@@H]4[C@@]5(C)C[C@@H](O[Si](C)(C)C(C)(C)C)[C@@H](O)C(C)(C)[C@@H]5CC[C@]43C)[C@@H]2C1
[ask] Identify the item whose IC50 is the smaller number: I or II Pick one; state its label.
[reply] I
(I: 2.68 µM, II: 580 µM)
